test system: HL-60(TB) leukemia; test: NCI tumour cell line growth inhibition, 48 h; in the data active = GI50 below about 0.43 µM; inactive = the rest
Outcome codes: true for active, false for inactive

# record-smiles, target-desc, discrete-label
records = [
    ("CN(CCC#N)c1ccc(/C=C(\\C#N)c2ccc(Br)cc2)cc1", "HL-60(TB) leukemia", "false"),
    ("Cc1ccc2[nH]c(O)c(N=Nc3ccc(S(N)(=O)=O)cc3)c2c1", "HL-60(TB) leukemia", "false"),
    ("C[C@]12CC[C@@H]3c4cc(OCC(F)(F)F)c(O)cc4/C(=N/O)C[C@H]3[C@@H]1CC[C@@H]2O", "HL-60(TB) leukemia", "true"),
    ("COc1cc2[nH]c(C(=O)c3cc(OC)c(OC)c(OC)c3)c(N)c2cc1C#CC1CC1", "HL-60(TB) leukemia", "false"),
    ("COc1ccc(/C=C/C(=O)C(CC2CCC2)C(=O)/C=C/c2ccc(OC)c(OC)c2)cc1OC", "HL-60(TB) leukemia", "false"),
    ("O=C(/C=C\\c1ccc(NCc2ccc(C(=O)O)cc2)cc1)CCl", "HL-60(TB) leukemia", "false"),
    ("CC(=O)C(=CN1CCN(C(=O)c2ccco2)C1=S)C(C)=O", "HL-60(TB) leukemia", "false"),
]

----------
system: T-47D breast; assay: NCI tumour cell line growth inhibition, 48 h
measured-endpoint: TGI

# record-smiles, test-result
rows = [
    ("Cc1cc(S(=O)(=O)Nc2nc3cc(-c4ccc(Cl)cc4)sc3c(=O)n2N)c(S)cc1Cl", "> 100 µM"),
    ("CCOc1cc(C(C)(C)C)ccc1C1=N[C@@](C)(c2ccc(Cl)cc2)[C@@](C)(c2ccc(Cl)cc2)N1C(=O)N1CCN(CCCS(C)(=O)=O)CC1", "61.4 µM"),
    ("COc1ccc(NS(=O)(=O)c2ccc(NC(NC(=O)CC(C)C)(C(F)(F)F)C(F)(F)F)cc2)nn1", "> 100 µM"),
    ("O=c1oc2ccc([N+](=O)[O-])cc2c(Nc2ccc3c(c2)Oc2ccccc2O3)c1[N+](=O)[O-]", "> 100 µM"),
]

----------
test system: SNB-75 CNS; assay: NCI tumour cell line growth inhibition, 48 h; in the data active = GI50 below about 0.43 µM; inactive = the rest
Labels: yes (1) = active, no (0) = inactive

# record-smiles, discrete-label
data = [
    ("COc1ccc(/C=C/C(=O)C(CC2CCC2)C(=O)/C=C/c2ccc(OC)c(OC)c2)cc1OC", "no (0)"),
    ("CC1=C[C@H]2c3c(c(O)c(O)c4oc(-c5ccccc5)cc(=O)c34)[C@H](c3cc(O)c(O)c4oc(-c5ccccc5)cc(=O)c34)[C@H]2C(C)(C)C1", "yes (1)"),
    ("C[C@H](O)C(=O)N1CCC(CCn2c(Sc3cc4c(cc3Br)OCO4)nc3c(N)ncnc32)CC1", "no (0)"),
    ("O=c1cccc(C#CC#CC2=CCCCC2)o1", "no (0)"),
    ("CN(C)CCN1C(=O)c2ccc3c4c(ccc(c24)C1=O)C(=O)N(CCN=C=S)C3=O", "yes (1)"),
]

----------
tested on: MOLT-4 leukemia; assay: NCI tumour cell line growth inhibition, 48 h; in the data active means GI50 below about 0.43 µM; inactive means the rest
Labels: 1.0 for active, 0.0 for inactive

# record-smiles, discrete-label
measured = [
    ("CC/C=C\\C[C@H]1C/C=C2/C(=O)C=C[C@@H]2C/C=C\\CCCC(=O)O1", 0.0),
    ("O=C(/C=C\\c1ccc(NCc2ccc(C(=O)O)cc2)cc1)CCl", 0.0),
    ("Cn1c(=O)c(Cc2ccccc2F)cc2cnc(NC3CCOCC3)nc21", 0.0),
    ("CCOc1cc(C(C)(C)C)ccc1C1=N[C@@](C)(c2ccc(Cl)cc2)[C@@](C)(c2ccc(Cl)cc2)N1C(=O)N1CCN(CCCS(C)(=O)=O)CC1", 1.0),
    ("COc1cccc(C#Cc2ccccc2C#CCCCCO)c1", 0.0),
    ("O=S(=O)(Nc1cc(Sc2cccc3cccnc23)c(O)c2ccccc12)c1ccccc1", 0.0),
    ("CCCCON(OC(=O)c1ccc2ccc3cccc4ccc1c2c34)C(C)=O", 0.0),
]

----------
tested on: CAKI-1 renal; experiment: NCI tumour cell line growth inhibition, 48 h; in the data active = GI50 below about 0.43 µM; inactive = the rest
Outcomes: active, inactive

# compound, discrete-label
measured = [
    ("ClCc1cccc(Cn2cnc3nc(Cl)nc(Cl)c32)c1", "inactive"),
    ("Cc1ccc(-c2nc3ccc(Cl)cc3c(=O)n2N2C(=O)CSC2c2ccccc2Cl)cc1 (stereo not given)", "inactive"),
    ("Cc1ncc(CCCN(C)C)cc1Nc1ncc2c(n1)-c1ccc(C(F)(F)F)cc1NC(=S)C2", "active"),
    ("CCOc1cc(C(C)(C)C)ccc1C1=N[C@@](C)(c2ccc(Cl)cc2)[C@@](C)(c2ccc(Cl)cc2)N1C(=O)N1CCN(CCCS(C)(=O)=O)CC1", "active"),
    ("CN(C)CCN1C(=O)c2ccc3c4c(ccc(c24)C1=O)C(=O)N(CCN=C=S)C3=O", "active"),
]

----------
test system: UACC-257 melanoma; test: NCI tumour cell line growth inhibition, 48 h
Each entry below lists one item and its recorded log10 TGI value.
measured-endpoint: log10 TGI (log10 of the value in µM)

# molecule, log10 TGI
measured = [
    ("CC1=C(O)C(=O)C=C2C1=CC=C1[C@@]2(C)CC[C@@]2(C)[C@@H]3C[C@](C)(C(=O)O)CC[C@]3(C)CC[C@]12C", -1.00),
    ("CCn1c(-c2ccc(OC(C)=O)cc2)c(C)c2cc(OC(C)=O)ccc21", 1.98),
    ("COc1cc(/C=C(\\C#N)c2ccccc2)cc(OC)c1", 1.71),
    ("O=c1cc(NC2CCN(CCCc3ccccc3)CC2)c2cc(Cl)ccc2o1", 1.48),
    ("CC(C(O)Cc1ccccc1)N(C)N=Nc1ccc([N+](=O)[O-])cc1 (stereo unspecified)", 1.66),
    ("O=c1cccc(C#CC#CC2=CCCCC2)o1", 1.11),
]

----------
system: TK-10 renal; assay: NCI tumour cell line growth inhibition, 48 h

# molecule, value-relation-sign, TGI / µM
data = [
    ("CCn1c(SCc2ccc(C)cc2)nnc1-c1nn(-c2ccc(Cl)cc2Cl)c(-c2ccc(Cl)cc2)c1C", "=", 10.9),
    ("COc1cc2[nH]c(C(=O)c3cc(OC)c(OC)c(OC)c3)c(N)c2cc1C#CC1CC1", ">", 100),
    ("CC12CCC(O)CC1CCC1C2CCC2(C)C(C(=O)CC(O)C(F)(F)F)CCC12 (stereo unspecified)", ">", 100),
    ("S=C(Nc1ccc2c(c1)oc1ccccc12)c1cccnc1", ">", 100),
    ("COc1ccc(C(=O)COc2ccc(/C=C3\\COc4ccc(OC)cc4C3=O)cc2)cc1", "=", 48.7),
    ("O=c1cccc(C#CC#CC2=CCCCC2)o1", "=", 14.2),
]

----------
system: RPMI-8226 leukemia; test: NCI tumour cell line growth inhibition, 48 h
Recorded GI50 by entry

# compound, GI50
records = [
    ("O=C1CSC(c2ccc(Cl)cc2Cl)N1c1ccc(F)cc1 (stereo unspecified)", "19.5 µM"),
    ("C[C@H](O)C(=O)N1CCC(CCn2c(Sc3cc4c(cc3Br)OCO4)nc3c(N)ncnc32)CC1", "4.19 µM"),
    ("CC1=C(C(=O)Nc2ccc(F)c(Cl)c2)C(c2cccc(O)c2)NC(=O)N1 (stereo unspecified)", "55.1 µM"),
    ("Nc1ccn(C2CCC(CO)O2)c(=O)n1 (stereo unspecified)", "> 1000 µM"),
    ("CCOc1cc(C(C)(C)C)ccc1C1=N[C@@](C)(c2ccc(Cl)cc2)[C@@](C)(c2ccc(Cl)cc2)N1C(=O)N1CCN(CCCS(C)(=O)=O)CC1", "3.13 µM"),
    ("Cc1ccc2[nH]c(O)c(N=Nc3ccc(S(N)(=O)=O)cc3)c2c1", "> 25 µM"),
    ("O=c1c2ccccc2c(=O)c2c1[nH]c1c(-c3ccccc3)c(-c3ccccc3)c(=O)c12", "2.07 µM"),
    ("COc1cc2[nH]c(C(=O)c3cc(OC)c(OC)c(OC)c3)c(N)c2cc1C#CC1CC1", "3.28 µM"),
    ("Cn1c(=O)c(Cc2ccccc2F)cc2cnc(NC3CCOCC3)nc21", "> 25 µM"),
    ("O=C1Nc2ccc(F)cc2/C1=C/c1ccc[nH]1", "> 25 µM"),
    ("COc1ccc(-c2nn(-c3ccc(NC(=O)Nc4cc(C(F)(F)F)cc(C(F)(F)F)c4)cc3)cc2-c2ccncc2)cc1Cl", "1.23 µM"),
]

----------
Form field: TGI (one value per entry).
test system: SF-268 CNS; assay: NCI tumour cell line growth inhibition, 48 h

# compound, TGI
rows = [
    ("CC1=C[C@H]2c3c(c(O)c(O)c4oc(-c5ccccc5)cc(=O)c34)[C@H](c3cc(O)c(O)c4oc(-c5ccccc5)cc(=O)c34)[C@H]2C(C)(C)C1", "17 µM"),
    ("C1C[OH+]CC[OH+]CC[OH+]CC[OH+]CC[OH+]1.[Cl-].[V]", "> 100 µM"),
    ("CCC(=O)ONC(=O)Cn1ccc([N+](=O)[O-])n1", "> 100 µM"),
    ("C=CCc1ccc(Oc2cc(CC=C)c3c(c2O)O[C@@H](CO)[C@H]3c2ccc(O)c(-c3cc(CC=C)ccc3O)c2)cc1", "> 100 µM"),
    ("Cc1ncc(CCCN(C)C)cc1Nc1ncc2c(n1)-c1ccc(C(F)(F)F)cc1NC(=S)C2", "13.8 µM"),
    ("CCOc1ccc(/C=C2/C(=O)N=C(NC(C)=O)N2C)cc1", "> 100 µM"),
    ("N#CC1CC2(C1)OCCS2 (centres undefined)", "> 100 µM"),
    ("COc1ccc2nc(NC(=O)C(=O)C(C#N)c3ccc([N+](=O)[O-])cc3)sc2c1 (centres undefined)", "> 100 µM"),
    ("O=[N+]([O-])/C(C(Cl)=C(Cl)Cl)=C(\\N1CCCCC1)n1cncn1", "26.9 µM"),
]
